The reported numbers originate from patent US20240383886A1.

# TESTED SYSTEM: PTPN2 (Homo sapiens)
# Construct: expressed in transfected cells; host or cells: 293T (293T.109 HiBiT-PTPN2 line; parental 293T WT from ATCC)
# Sequence (P17706 1-415): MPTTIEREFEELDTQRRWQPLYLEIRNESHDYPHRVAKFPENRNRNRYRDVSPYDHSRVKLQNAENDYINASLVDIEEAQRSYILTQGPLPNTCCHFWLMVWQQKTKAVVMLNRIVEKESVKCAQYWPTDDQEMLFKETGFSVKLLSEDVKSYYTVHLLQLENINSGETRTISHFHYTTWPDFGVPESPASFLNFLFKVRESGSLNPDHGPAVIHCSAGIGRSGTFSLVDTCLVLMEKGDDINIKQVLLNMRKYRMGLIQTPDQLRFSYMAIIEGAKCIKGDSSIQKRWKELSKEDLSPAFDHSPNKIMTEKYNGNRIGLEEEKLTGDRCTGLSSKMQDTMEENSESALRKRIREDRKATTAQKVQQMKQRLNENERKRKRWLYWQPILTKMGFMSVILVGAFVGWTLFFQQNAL
# TEST NAME: HiBiT-Degradation 293T.109 PTPN2 (Nano-Glo HiBiT Lytic Assay)
# Type: cell-based
# MEASUREMENT CONTEXT: 293T.109 (HiBiT-PTPN2) cells, 24.0 hours
DC50 values for the molecules below.

{"columns": ["MOLECULE", "TESTED SYSTEM", "DC50"],
 "data": [
  ["Cn1c(=O)n(C2CCC(=O)NC2=O)c2ccc(C3CCN(CC4CC4C(=O)Nc4ccc5c(F)c(N6CC(=O)NS6(=O)=O)c(O)cc5c4)CC3)cc21 (centres unmarked)", "PTPN2 (Homo sapiens)", "10 to 50 nM"],
  ["Cn1c(=O)n(C2CCC(=O)NC2=O)c2ccc(C3CCN(CCC(=O)N4CC[C@H](c5ccc6cc(O)c(N7CC(=O)NS7(=O)=O)c(F)c6c5)C4)CC3)cc21 (some centres unmarked)", "PTPN2 (Homo sapiens)", "10 to 50 nM"],
  ["O=C(CN1CCC(c2ccc(NC3CCC(=O)NC3=O)c(Oc3ccccc3)c2)CC1)NCCOc1ccc2cc(O)c(N3CC(=O)NS3(=O)=O)c(F)c2c1 (centres unmarked)", "PTPN2 (Homo sapiens)", "50 to 200 nM"],
  ["Cn1c(=O)n(C2CCC(=O)NC2=O)c2ccc([C@H]3CC[C@H](CC(=O)Nc4ccc5c(F)c(N6CC(=O)NS6(=O)=O)c(O)cc5c4)CC3)cc21 (single isomer, unassigned) [Example 81b]", "PTPN2 (Homo sapiens)", "10 to 50 nM"],
  ["Cn1c(=O)n(C2CCC(=O)NC2=O)c2ccc(N3CCC(CNC(=O)c4ccc5c(F)c(N6CC(=O)NS6(=O)=O)c(O)cc5c4)CC3)cc21 (centres unmarked)", "PTPN2 (Homo sapiens)", "50 to 200 nM"],
  ["Cn1c(=O)n(C2CCC(=O)NC2=O)c2ccc(Nc3ccc(CC(=O)Nc4ccc5c(F)c(N6CC(=O)NS6(=O)=O)c(O)cc5c4)cc3)cc21 (centres unmarked)", "PTPN2 (Homo sapiens)", "10 to 50 nM"],
  ["O=C(CCCCOc1ccc2cc(O)c(N3CC(=O)NS3(=O)=O)c(F)c2c1)NCCCc1ccc2c3c(cccc13)C(=O)N2C1CCC(=O)NC1=O (centres unmarked)", "PTPN2 (Homo sapiens)", "10 to 50 nM"],
  ["CN(CCOc1ccc2cc(O)c(N3CC(=O)NS3(=O)=O)c(F)c2c1)C(=O)CNCCCc1ccc2c3c(cccc13)C(=O)N2C1CCC(=O)NC1=O (centres unmarked)", "PTPN2 (Homo sapiens)", "50 to 200 nM"],
  ["Cn1c(=O)n(C2CCC(=O)NC2=O)c2ccc(C3CCN(CCN4CC=C(c5ccc6cc(O)c(N7CC(=O)NS7(=O)=O)c(F)c6c5)CC4)CC3)cc21 (centres unmarked)", "PTPN2 (Homo sapiens)", "10 to 50 nM"],
  ["Cn1c(=O)n(C2CCC(=O)NC2=O)c2ccc(C3CCN(CCCCCOc4ccc5cc(O)c(N6CC(=O)NS6(=O)=O)c(F)c5c4)CC3)cc21 (centres unmarked)", "PTPN2 (Homo sapiens)", "10 to 50 nM"],
  ["O=C(CCOCCn1cc(CNc2cccc3c2C(=O)N(C2CCC(=O)NC2=O)C3=O)nn1)NCCOc1ccc2cc(O)c(N3CC(=O)NS3(=O)=O)cc2c1 (centres unmarked)", "PTPN2 (Homo sapiens)", "≥ 1000 nM"]
]}
